- EXPERIMENTAL_TARGET: human factor Xa (Homo sapiens, UniProt P00742)
- Sequence (P00742 235-488 limits assumed): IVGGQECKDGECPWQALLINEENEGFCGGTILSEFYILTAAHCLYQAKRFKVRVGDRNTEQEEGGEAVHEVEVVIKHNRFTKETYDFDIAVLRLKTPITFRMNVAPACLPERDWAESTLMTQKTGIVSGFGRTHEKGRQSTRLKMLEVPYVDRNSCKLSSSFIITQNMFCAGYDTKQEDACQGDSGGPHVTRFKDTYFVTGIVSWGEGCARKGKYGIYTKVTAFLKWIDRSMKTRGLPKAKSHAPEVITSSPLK
- Sequence (P00742 41-179 partner limits assumed): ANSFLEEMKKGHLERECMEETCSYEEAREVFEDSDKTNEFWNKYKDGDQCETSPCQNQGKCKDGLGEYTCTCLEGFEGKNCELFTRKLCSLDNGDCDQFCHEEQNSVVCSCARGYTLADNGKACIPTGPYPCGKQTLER
- MEASUREMENT_PROTOCOL: Factor Xa assay (chromogenic, substrate S-2765)
- Type: biochemical
- CONDITION_DETAILS: inhibition constant for factor Xa; purified enzyme 0.5 nM, substrate S-2765 140 μM, 25° C., pH 7.8; Ki=IC50/{1+(substrate concentration/Km)}; read-out: Ki(FXa)
READOUT_NAME: pKi
When answering, recall that pKi equals minus log10 of the concentration in mol/L, and write that number alone.

State the recorded pKi for this entry: CC(C)N1CCC(NC(=O)c2cc3ccccc3n2Cc2cc(-c3ccc(Cl)cc3)on2)CC1
6.09

Input O=C(NC1CCN(C2CC2)CC1)c1cc2ccccc2n1Cc1cc(-c2ccc(Cl)s2)on1
7.57

Input CC(C)N1CC[C@@H](NC(=O)c2cc3ccccc3n2Cc2cc(-c3ccc(Cl)s3)on2)C1
7.32

Input CC(C)N1CCC(NC(=O)c2cc3ccccc3n2Cc2cc(-c3ccc(Cl)cc3)no2)CC1
6.40

Input CC(C)N1CCC(NC(=O)c2cc3ccccc3n2CCc2ccc(Cl)cc2Cl)CC1
6.33

Input CC(C)N1CCC(NC(=O)c2cc3ccccc3n2Cc2nnc(-c3ccc(Cl)s3)s2)CC1
8.40

Input CC(C)N1CCC(NC(=O)c2cc3ccccc3n2Cc2cc3ccc(Cl)cc3s2)CC1
7.40

Input CC(C)N1CCC(NC(=O)c2cc3cc(S(C)(=O)=O)ccc3n2Cc2cc(-c3ccc(Cl)s3)on2)CC1
7.70

* * *

- EXPERIMENTAL_TARGET: UniProtKB P00742
- MEASUREMENT_PROTOCOL: Factor Xa assay (chromogenic, substrate S-2765)
- Assay type: biochemical
- CONDITION_DETAILS: read-out: Ki(FXa)
Assign pKi to each entry below.
When answering, recall that pKi equals minus log10 of the concentration in mol/L, and write that number alone.

State the recorded pKi for this entry: CCOC(=O)CN(C(=O)c1cc2c(OC)ccc(OC)c2n1Cc1cc(-c2ccc(Cl)s2)on1)C1CCN(C(C)C)CC1
7.59

Input CC(C)N1CCC(NC(=O)c2cc3cc([N+](=O)[O-])ccc3n2CC(=O)Nc2ccc(Cl)cc2)CC1
8.22

Input COc1cccc(Cn2c(C(=O)NC3CCN(C(C)C)CC3)cc3cc(Cl)ccc32)c1
6.73

Input CC(C)N1CCC(NC(=O)c2cc3cc(Cl)ccc3n2CC(=O)Nc2ccc(Cl)cn2)CC1
8.05

Input COc1cc2cc(C(=O)NC3CCN(C(C)C)CC3)n(Cc3cc(-c4ccc(Cl)s4)on3)c2cc1O
5.71

Input CC(C)N1CCC(N(CC(=O)O)C(=O)c2cc3c(C(F)(F)F)cccc3n2Cc2cc(-c3ccc(Cl)s3)on2)CC1
6.76

Input CC(C)N1CCC(NC(=O)c2cc3ccccc3n2Cc2cc3ccc(Cl)cc3c(Cl)n2)CC1
7.10

Input CC(C)N1CCC(NC(=O)c2cc3ccccc3n2Cc2cccc(C(N)=O)c2)CC1
6.12

* * *

- EXPERIMENTAL_TARGET: human factor Xa (Homo sapiens, UniProt P00742)
- MEASUREMENT_PROTOCOL: Factor Xa assay (chromogenic, substrate S-2765);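 further: purified enzyme preincubated with inhibitor for 10 min before substrate addition, final reaction volume 100 µl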
- Format: biochemical
- CONDITION_DETAILS: read-out: Ki(FXa)
pKi: −log10 of the molar value.
Param threshold (7) applies to pKi; output yes (1) when value >= threshold, no (0) when value < threshold.

Hi team, for CC(C)N1CCC(N(CC(=O)O)C(=O)c2cc3c(Cl)cccc3n2Cc2cc(-c3ccc(Cl)s3)on2)CC1 [Example 234] , is the recorded pKi at or above 7?
yes (1)

Input O=CN1CCC(NC(=O)c2cc3ccccc3n2Cc2cc(-c3ccc(Cl)s3)on2)CC1 [Example 189]
no (0)

Input CCOC(=O)CN(C(=O)c1cc2c(C)ccc(C)c2n1Cc1cc(-c2ccc(Cl)s2)on1)C1CCN(C(C)C)CC1 [Example 224]
yes (1)

Input N#CCN1CCC(NC(=O)c2cc3ccccc3n2Cc2cc(-c3ccc(Cl)s3)on2)CC1 [Example 259]
no (0)

Input CC(C)N1CCC(NC(=O)c2cc3cc(CO)ccc3n2Cc2cc(-c3ccc(Cl)s3)on2)CC1 [Example 237]
yes (1)

* * *

- EXPERIMENTAL_TARGET: human factor Xa (Homo sapiens)
- MEASUREMENT_PROTOCOL: Factor Xa assay (chromogenic, substrate S-2765)
- Type: biochemical
- CONDITION_DETAILS: inhibition constant for factor Xa; purified enzyme 0.5 nM, substrate S-2765 140 μM, 25° C., pH 7.8; Ki=IC50/{1+(substrate concentration/Km)}; read-out: Ki(FXa)
Assign pKi to each entry below.
When answering, recall that pKi equals minus log10 of the concentration in mol/L, and write that number alone.

State the recorded pKi for this entry: CC(C)N1CC[C@H](NC(=O)c2cc3ccccc3n2Cc2cc(-c3ccc(Cl)s3)on2)C1 [Example 222]
6.99

Input CC(=O)N1CCC(NC(=O)c2cc3ccccc3n2Cc2cc(-c3ccc(Cl)s3)on2)CC1 [Example 192]
6.12

Input CN1CCC(NC(=O)c2cc3ccccc3n2Cc2cc(-c3ccc(Cl)s3)on2)CC1 [Example 187]
7.40

Input Cc1ccc2c(c1)cc(C(=O)NC1CCN(C(C)C)CC1)n2Cc1cc(-c2ccc(Cl)s2)on1 [Example 8]
8.05

* * *

Assign log10(Ki) to each entry below.
- EXPERIMENTAL_TARGET: human factor Xa (Homo sapiens)
- MEASUREMENT_PROTOCOL: Factor Xa assay (chromogenic, substrate S-2765)
- Assay type: biochemical
- CONDITION_DETAILS: inhibition constant for factor Xa; purified enzyme 0.5 nM, substrate S-2765 140 μM, 25° C., pH 7.8; Ki=IC50/{1+(substrate concentration/Km)}; read-out: Ki(FXa)
Remember, log10 of Ki, in nM.

State the recorded log10(Ki) for this entry: CC(C)N1CCC(NC(=O)c2cc3ccccc3n2CC(=O)Nc2ccc(Cl)s2)CC1 [Example 249]
1.18

Input CC(C)N1CCC(NC(=O)c2cc3ccc(Cl)cc3n2Cc2cc(-c3ccc(Cl)s3)on2)CC1 [Example 21]
0.85

Input CC(C)N1CCC(NC(=O)c2c(Br)c3ccccc3n2Cc2cc(-c3ccc(Cl)s3)on2)CC1 [Example 123]
0.30

Input Cc1cccc2c1cc(C(=O)NC1CCN(C(C)C)CC1)n2Cc1cc(-c2ccc(Cl)s2)on1 [Example 174]
0.48

Input CCC(CC)N1CCC(NC(=O)c2cc3ccccc3n2Cc2cc(-c3ccc(Cl)s3)on2)CC1 [Example 186]
2.34

Input NC(=O)N1CCC(NC(=O)c2cc3ccccc3n2Cc2cc(-c3ccc(Cl)s3)on2)CC1 [Example 190]
3.03

Input CC(C)N1CCC(NC(=O)c2c(-c3ccccc3)c3ccccc3n2Cc2cc(-c3ccc(Cl)s3)on2)CC1 [Example 16]
1.74

Input CC(C)CN1CCC(NC(=O)c2cc3ccccc3n2Cc2cc(-c3ccc(Cl)s3)on2)CC1 [Example 199]
2.15

Input CC(C)N1CCC(NC(=O)c2c(Cl)c3ccccc3n2Cc2cc(-c3ccc(Cl)s3)on2)CC1 [Example 122]
0.30

Input CC(C)N1CCC(NC(=O)c2cc3ccccc3n2Cc2cccc(Cl)c2)CC1 [Example 163]
2.82

Input CC(C)N1CCC(NC(=O)c2cc3ccccc3n2CCc2ccc(Cl)cc2)CC1 [Example 169]
1.86

Input CC(C)N1CCC(NC(=O)c2cc3cc(C#N)ccc3n2Cc2cc(-c3ccc(Cl)s3)on2)CC1 [Example 176]
0.30

Input CC(C)N1CCC(NC(=O)c2c(F)c3ccccc3n2Cc2cc(-c3ccc(Cl)s3)on2)CC1 [Example 159]
0.30

* * *

- EXPERIMENTAL_TARGET: human factor Xa (Homo sapiens)
- MEASUREMENT_PROTOCOL: Factor Xa assay (chromogenic, substrate S-2765)
- Type: biochemical
- CONDITION_DETAILS: read-out: Ki(FXa)
pKi: −log10 of the molar value.
Response field class: enum, chosen by comparing pKi against lo = under 7, mid = from 7 up to 8, hi = 8 and over

Please report the category associated with COC(=O)N1CCC(NC(=O)c2cc3ccccc3n2Cc2cc(-c3ccc(Cl)s3)on2)CC1 , nothing else.
lo

Input COc1cccc2c1cc(C(=O)NC1CCN(C(C)C)CC1)n2Cc1cc(-c2ccc(Cl)s2)on1
hi

Input CC(C)N1CCC(NC(=O)c2cc3cc(F)cc(F)c3n2Cc2cc(-c3ccc(Cl)s3)on2)CC1
hi

Input CN1CCC(N2CCN(C(=O)c3cc4ccccc4n3Cc3cc(-c4ccc(Cl)s4)on3)CC2)CC1
lo

Input CC(C)N1CCC(NC(=O)c2cc3cc(C(=O)OCOC(=O)C(C)(C)C)ccc3n2Cc2cc(-c3ccc(Cl)s3)on2)CC1
mid

Input CCOC(=O)OC(C)OC(=O)c1ccc2c(c1)cc(C(=O)NC1CCN(C(C)C)CC1)n2Cc1cc(-c2ccc(Cl)s2)on1 (stereo not drawn)
mid

Input O=C(NC1CCN(c2ccncc2)CC1)c1cc2cc([N+](=O)[O-])ccc2n1Cc1cc(-c2ccc(Cl)s2)on1
mid

Input Cc1cccc2cc(C(=O)NC3CCN(c4ccncc4)CC3)n(Cc3cc(-c4ccc(Cl)s4)on3)c12
mid

Sourced from patent US20090069565A1
